// provenance: ChEMBL document CHEMBL4152341

Provide the recorded pIC50 for the entries that follow.
# System: A549
# Test summary: Antiproliferative activity against human A549 cells after 72 hrs by CCK8 assay
# Type: functional, cell-based
# Condition label: A549, 72 h
One number for each entry, as −log10 of the molar value.

Compound	Readout value
CCOc1cc(C(C)(C)C)ccc1C1=NC(c2ccc(Cl)cc2)C(c2ccc(Cl)cc2)N1C(=O)NCCCCCCC(=O)NO (configuration not stated)	5.22
CCOc1cc(C(C)(C)C)ccc1C1=NC(c2ccc(Cl)cc2)C(c2ccc(Cl)cc2)N1C(=O)N1CCN(CCCCC(=O)NO)CC1 (configuration not stated)	5.42
CCOc1cc(C(C)(C)C)ccc1C1=NC(c2ccc(Cl)cc2)C(c2ccc(Cl)cc2)N1C(=O)NCCCCCC(=O)Nc1ccccc1N (configuration not stated)	4.69
CCOc1cc(C(C)(C)C)ccc1C1=NC(c2ccc(Cl)cc2)C(c2ccc(Cl)cc2)N1C(=O)NCCCCCC(=O)NO (configuration not stated)	5.24
CCOc1cc(C(C)(C)C)ccc1C1=NC(c2ccc(Cl)cc2)C(c2ccc(Cl)cc2)N1C(=O)N1CCN(CCCCCCC(=O)NO)CC1 (configuration not stated)	6.04

Below are some compounds; for each one, tell me its pIC50.
1. CCOc1cc(C(C)(C)C)ccc1C1=NC(c2ccc(Cl)cc2)C(c2ccc(Cl)cc2)N1C(=O)N1CCN(Cc2ccc(C(=O)NO)cc2)CC1 (configuration not stated)
2. CCOc1cc(C(C)(C)C)ccc1C1=NC(c2ccc(Cl)cc2)C(c2ccc(Cl)cc2)N1C(=O)N1CCC(C(=O)NO)CC1 (configuration not stated)

*A*
5.66
5.52

====

# Target entity: Histone deacetylase 1 (Homo sapiens, UniProt Q13547)
# Sequence (Q13547 whole entry): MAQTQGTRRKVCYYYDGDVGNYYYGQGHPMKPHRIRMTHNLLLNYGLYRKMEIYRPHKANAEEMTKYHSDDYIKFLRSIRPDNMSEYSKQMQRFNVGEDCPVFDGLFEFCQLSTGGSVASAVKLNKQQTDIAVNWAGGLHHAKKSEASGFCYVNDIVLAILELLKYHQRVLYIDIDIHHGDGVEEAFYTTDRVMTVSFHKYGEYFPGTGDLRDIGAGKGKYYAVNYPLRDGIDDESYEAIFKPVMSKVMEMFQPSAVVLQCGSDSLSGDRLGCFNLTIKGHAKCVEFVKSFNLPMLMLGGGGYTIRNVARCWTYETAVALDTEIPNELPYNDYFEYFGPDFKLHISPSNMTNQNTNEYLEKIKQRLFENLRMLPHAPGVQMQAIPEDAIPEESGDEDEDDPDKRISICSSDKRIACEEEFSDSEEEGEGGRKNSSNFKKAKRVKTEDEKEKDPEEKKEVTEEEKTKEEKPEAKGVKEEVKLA
# Test summary: Inhibition of human recombinant full length HDAC1 using fluorogenic substrate 3 after 30 mins by fluorescence assay
Provide the recorded IC50 for the entries that follow.

Molecule	Reported metric	Readout value
CCOc1cc(C(C)(C)C)ccc1C1=NC(c2ccc(Cl)cc2)C(c2ccc(Cl)cc2)N1C(=O)N1CCC(Nc2ncc(C(=O)NO)cn2)CC1 (configuration not stated)	IC50	1010 nM
CCOc1cc(C(C)(C)C)ccc1C1=NC(c2ccc(Cl)cc2)C(c2ccc(Cl)cc2)N1C(=O)NCCCCCCCC(=O)Nc1ccccc1N (configuration not stated)	IC50	3590 nM
CCOc1cc(C(C)(C)C)ccc1C1=NC(c2ccc(Cl)cc2)C(c2ccc(Cl)cc2)N1C(=O)N1CCN(CCCCC(=O)NO)CC1 (configuration not stated)	IC50	980 nM
CCOc1cc(C(C)(C)C)ccc1C1=NC(c2ccc(Cl)cc2)C(c2ccc(Cl)cc2)N1C(=O)NCCCCCC(=O)NO (configuration not stated)	IC50	1130 nM
CCOc1cc(C(C)(C)C)ccc1C1=NC(c2ccc(Cl)cc2)C(c2ccc(Cl)cc2)N1C(=O)N1CCN(CC(=O)NO)CC1 (configuration not stated)	IC50	4200 nM
CCOc1cc(C(C)(C)C)ccc1C1=NC(c2ccc(Cl)cc2)C(c2ccc(Cl)cc2)N1C(=O)N1CCC(C(=O)NO)CC1 (configuration not stated)	IC50	9720 nM

Here is another molecule to look at.
*Q* Value lookup for IC50; key = CCOc1cc(C(C)(C)C)ccc1C1=NC(c2ccc(Cl)cc2)C(c2ccc(Cl)cc2)N1C(=O)NCCCCCCCC(=O)NO (configuration not stated)
*A* 270 nM

====

Parameter 'readout' = Ki; parameter 'system' = E3 ubiquitin-protein ligase Mdm2 (Homo sapiens).
Give bare numbers, in nM.

Some entries whose results are on file:
Molecule	Ki, nM
CCOc1cc(C(C)(C)C)ccc1C1=NC(c2ccc(Cl)cc2)C(c2ccc(Cl)cc2)N1C(=O)NCCCCCC(=O)NO (centres undefined)	280
CCOc1cc(C(C)(C)C)ccc1C1=NC(c2ccc(Cl)cc2)C(c2ccc(Cl)cc2)N1C(=O)NCCCCC(=O)Nc1ccccc1N (centres undefined)	960
CCOc1cc(C(C)(C)C)ccc1C1=NC(c2ccc(Cl)cc2)C(c2ccc(Cl)cc2)N1C(=O)N1CCN(Cc2ccc(C(=O)NO)cc2)CC1 (centres undefined)	260

Here is another molecule to look at.
*Q* Value lookup for Ki; key = CCOc1cc(C(C)(C)C)ccc1C1=NC(c2ccc(Cl)cc2)C(c2ccc(Cl)cc2)N1C(=O)NCCCCCC(=O)Nc1ccccc1N (centres undefined)
*A* 1430

====

# Test summary: Cmax in Sprague-Dawley rat at 2 mg/kg, iv administered as bolus dose by LC-MS/MS analysis
# Type: ADME, organism-based
# Design: dose 2 mg/kg, route intravenous
# Condition label: in vivo
Reported metric: Cmax (ng/mL)
One number for each entry, in ng/mL.

*Q* Value lookup for Cmax; key = CCOc1cc(C(C)(C)C)ccc1C1=NC(c2ccc(Cl)cc2)C(c2ccc(Cl)cc2)N1C(=O)N1CCN(CCCCCCC(=O)NO)CC1 (stereo unspecified)
*A* 1470

====

# Test system: NCI-H1299
# Test summary: Antiproliferative activity against human NCI-H1299 cells after 72 hrs by CCK8 assay
# Type: functional, cell-based
# Condition label: NCI-H1299, 72 h
Reported metric: IC50 (µM)
Numbers only, in µM.

Molecule	Target entity	Unit symbol	IC50
CC(=O)Nc1ccc(C(=O)Nc2ccccc2N)cc1	NCI-H1299	µM	6.79
O=C(CCCCCCC(=O)Nc1ccccc1)NO	NCI-H1299	µM	4.92
CCOc1cc(C(C)(C)C)ccc1C1=NC(c2ccc(Cl)cc2)C(c2ccc(Cl)cc2)N1C(=O)NCCCCCCC(=O)NO (stereo not given)	NCI-H1299	µM	7.65
CCOc1cc(C(C)(C)C)ccc1C1=NC(c2ccc(Cl)cc2)C(c2ccc(Cl)cc2)N1C(=O)NCCCCCCC(=O)Nc1ccccc1N (stereo not given)	NCI-H1299	µM	17.5

Here is another molecule to look at.
*Q* Value lookup for IC50; key = CCOc1cc(C(C)(C)C)ccc1C1=NC(c2ccc(Cl)cc2)C(c2ccc(Cl)cc2)N1C(=O)N1CCN(CCCCCCCC(=O)NO)CC1 (stereo not given)
*A* 7.76

====

# Test summary: Terminal half life in Sprague-Dawley rat at 2 mg/kg, iv administered as bolus dose by LC-MS/MS analysis
# Format: ADME, organism-based
# Condition label: in vivo, read-out: beta t1/2 (converted)
Reported metric: half-life (h)
Numbers only, in h.

*Q* Value lookup for half-life; key = CCOc1cc(C(C)(C)C)ccc1C1=NC(c2ccc(Cl)cc2)C(c2ccc(Cl)cc2)N1C(=O)N1CCN(CCCCCCC(=O)NO)CC1 (stereo unspecified)
*A* 1.22

====

# Test summary: Tmax in Sprague-Dawley rat at 2 mg/kg, iv administered as bolus dose by LC-MS/MS analysis
# Assay type: ADME, organism-based
# Condition label: in vivo
Reported metric: Tmax (min)
Numbers only, in min.

*Q* Value lookup for Tmax; key = CCOc1cc(C(C)(C)C)ccc1C1=NC(c2ccc(Cl)cc2)C(c2ccc(Cl)cc2)N1C(=O)N1CCN(CCCCCCC(=O)NO)CC1 (stereo unspecified)
*A* 4.98

====

# Tested on: Rattus norvegicus
# Test summary: Clearance in Sprague-Dawley rat at 2 mg/kg, iv administered as bolus dose by LC-MS/MS analysis
# Type: ADME, organism-based
# Condition label: in vivo
Reported metric: clearance (mL/min/kg)
Answers are plain numbers, in mL/min/kg.

*Q* Value lookup for clearance; key = CCOc1cc(C(C)(C)C)ccc1C1=NC(c2ccc(Cl)cc2)C(c2ccc(Cl)cc2)N1C(=O)N1CCN(CCCCCCC(=O)NO)CC1 (stereo unspecified)
*A* 46.8

====

Provide the recorded pKi for the entries that follow.
# Target entity: E3 ubiquitin-protein ligase Mdm2 (Homo sapiens, UniProt Q00987)
# Sequence (Q00987 whole entry): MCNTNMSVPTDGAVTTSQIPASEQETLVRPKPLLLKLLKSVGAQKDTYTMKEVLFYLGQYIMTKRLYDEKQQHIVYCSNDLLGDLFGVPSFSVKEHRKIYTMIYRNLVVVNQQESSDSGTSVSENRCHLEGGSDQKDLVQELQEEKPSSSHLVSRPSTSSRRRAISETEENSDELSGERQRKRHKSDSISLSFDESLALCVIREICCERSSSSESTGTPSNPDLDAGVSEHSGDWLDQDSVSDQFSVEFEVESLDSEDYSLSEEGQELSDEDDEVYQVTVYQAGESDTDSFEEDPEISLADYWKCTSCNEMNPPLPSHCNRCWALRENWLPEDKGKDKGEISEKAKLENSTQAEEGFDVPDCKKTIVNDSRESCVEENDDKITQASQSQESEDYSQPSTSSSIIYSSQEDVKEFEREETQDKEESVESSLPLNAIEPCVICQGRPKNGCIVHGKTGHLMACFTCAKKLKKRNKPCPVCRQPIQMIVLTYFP
Give bare numbers, as −log10 of the molar value.

Some entries whose results are on file:
Molecule	pKi
CCOc1cc(C(C)(C)C)ccc1C1=NC(c2ccc(Cl)cc2)C(c2ccc(Cl)cc2)N1C(=O)N1CCC(C(=O)NO)CC1 (configuration not stated)	7.24
CCOc1cc(C(C)(C)C)ccc1C1=NC(c2ccc(Cl)cc2)C(c2ccc(Cl)cc2)N1C(=O)NCCCCC(=O)NO (configuration not stated)	6.48
CCOc1cc(C(C)(C)C)ccc1C1=N[C@@H](c2ccc(Cl)cc2)[C@@H](c2ccc(Cl)cc2)N1C(=O)N1CCN(CCCCCCC(=O)NO)CC1	7.22
CCOc1cc(C(C)(C)C)ccc1C1=NC(c2ccc(Cl)cc2)C(c2ccc(Cl)cc2)N1C(=O)N1CCN(CCCCCCCC(=O)NO)CC1 (configuration not stated)	6.54
CCOc1cc(C(C)(C)C)ccc1C1=NC(c2ccc(Cl)cc2)C(c2ccc(Cl)cc2)N1C(=O)N1CCC(C(=O)Nc2ccc(/C=C/C(=O)NO)cc2)CC1 (configuration not stated)	5.58

Here is another molecule to look at.
*Q* Value lookup for pKi; key = CCOc1cc(C(C)(C)C)ccc1C1=NC(c2ccc(Cl)cc2)C(c2ccc(Cl)cc2)N1C(=O)N1CCN(CCCCCC(=O)NO)CC1 (configuration not stated)
*A* 6.77
